Catalogue of pKd values
- assayed_target: BCL6-POZ domain (residues 7 to 128 of human BCL6, C8Q, C67R, C84N) (human, UniProt P41182 7-128, cysteine8 mutated to glutamine | cysteine67 mutated to arginine | cysteine84 …)
- procedure_details: fluorescence polarisation; fixed concentration of BODIPY TMR-labelled SMRT peptide, increasing concentration of BCL6-POZ domain; PBS, 0.05% (v/v) Triton X-100, 0.1 mg/mL BSA; room temperature; triplicate; one-site binding (hyperbola) fit
- experimental_setup: both partners purified
// pKd: -log10(molar conc.)

binder | experimental_result
LVATVKEAGRSIXEIPR (2-naphthylalanine in place of histidine1426; BODIPY TMR dye coupled via the amino-terminal cysteine) [2-naphthyl-SMRT peptide, labelled with BODIPY TMR] | 3.81

Next binder, pKd to be filled in.
Prompt: I'd like to know its pKd. The binder in question is LVATVKEAGRSIXEIPR (1-naphthylalanine in place of histidine1426; BODIPY TMR dye coupled via the amino-terminal cysteine) [1-naphthyl-SMRT peptide, labelled with BODIPY TMR]
Response: 4.96
